test: Axitinib concentration in plasma samples; type: in vivo, C57BL/6 mice; details: female, C57BL/6, mouse, 12 h, 9c single IT 50 μL (n=4), Axitinib 3 mg/kg oral (n=3), LLOQ 50.0 pg/mL
testReadout: concentration at 12 h (ng/mL)
Give your result in ng/mL as a bare value.

Suppose we examine the compound CNC(=O)c1ccccc1Sc1ccc2c(/C=C/c3ccccn3)n[nH]c2c1 ; what concentration at 12 h value has been reported? 0.797

---

assay: Axitinib concentration in plasma samples; format: in vivo, C57BL/6 mice; conditions: female, C57BL/6, mouse, 0.5 h, 9c single IT 50 μL (n=4), Axitinib 3 mg/kg oral (n=3), LLOQ 50.0 pg/mL
testReadout: concentration at 0.5 h (µg/mL)
Give your result in µg/mL as a bare value.

Suppose we examine the molecule CNC(=O)c1ccccc1Sc1ccc2c(/C=C/c3ccccn3)n[nH]c2c1 [Axitinib, axitinib] ; what concentration at 0.5 h value has been reported? 0.101
